target: T1, human GLP-1 receptor (human, UniProt P43220 24-463); experiment: displacement of 125I-GLP-1(7-36)NH2, membranes with human GLP-1R, SPA
T1 construct: whole, on cells; the potency assay used whole cells (clone FCW467-12A/KZ10-1)
Numbered stars: 1 amine (or outer) side, 2 acyl side, 3 side chain; on linkers, the order of the positions; unused ones are H or OH. Square brackets hold non-standard residues; d marks the D form. Side chains are listed from the residue outwards. Ends that are not written are not given here. * marks the point of attachment. C18 diacid = O=C(O)CCCCCCCCCCCCCCCCC(=O)*; γGlu = O=C(O)[C@H](CCC(=O)[*:2])N[*:1]; Ac4c = NC1(C(=O)O)CCC1; AEEA = NCCOCCOCC(=O)O; Aib = CC(C)(N)C(=O)O
Items are presented alongside their recorded IC50.

binder | IC50 (nM)
H[Aib]QGTFTSDLSKYLDLRRAQDFVQWLLK([γGlu-γGlu-Ser-Glu-Ser-γGlu-γGlu-C18 diacid])T-NH2 | 1.9
H[Aib]QGTFTSDLSKYLDLKRAREFVQWLLK([γGlu-γGlu-AEEA-AEEA-γGlu-C18 diacid])T-NH2 | 0.5
H[Ac4c]QGTFTSDLSKYLDLKRAREFVQWLLK([Gly-Ser-Glu-Gly-Ser-γGlu-γGlu-C18 diacid])T-NH2 | 0.2

This collection of values is drawn from patent US20150374794A1.
